Tested on: PC-3 prostate
Assay: NCI-60 one-dose screen, 48 h (100 = growth as untreated, 0 = no growth, -100 = all killed)
Settings: 10 µM unless noted
Compounds without any hit were thinned out: in the full panel of roughly 83,000, 20% have a hit. Activity calls are given as the source filed them. How the source made its calls: active means growth percent below 10; inactive means the rest.
Listed compounds paired with reported growth

compound="CC1SC(c2ccc(OCc3ccccc3)cc2)N(NC(=O)C(O)(c2ccccc2)c2ccccc2)C1=O (stereo not drawn)" system="PC-3 prostate" valueobserved="30.1% (inactive)"

Specify growth for C=C1C(=O)O[C@H]2[C@H]1CC/C(COC(=O)C(=O)c1c[nH]c3ccc(OC)cc13)=C\CC[C@@]1(C)O[C@@H]21 and stop.
-70% (active)

Specify growth for Cc1ccc2nc(NC(=O)CSc3nc(-c4ccccc4)c(C#N)c(=O)n3Cc3ccccc3)sc2c1 and stop.
71.9% (inactive)

---

Tested on: A549/ATCC NSCLC
Test: NCI-60 one-dose screen, 48 h
Conditions: 10 µM unless noted
About 83,000 compounds went through this panel and 20% of them were active in at least one assay; those are over-represented in the sample as a whole. The source made the active and inactive calls. How the source made its calls: active means growth percent below 10; inactive means the rest.
Please answer using one outcome listed in active, inactive

smilesdata=CC/C=C1/C(=O)C=C[C@@H]1C/C=C\CCCC(=O)O qualitativelabel=inactive
smilesdata=Cn1cc(-c2csc(-c3cccc(F)c3)n2)c2cccnc21 qualitativelabel=active
smilesdata=Cc1c(C(=O)OC(=NC2CCCCC2)NC2CCCCC2)sc2c1c(=O)nc1c(C#N)n[nH]n12 qualitativelabel=inactive
smilesdata=CCOC(=O)c1ccc(N2NC(=O)/C(=C/c3ccc([N+](=O)[O-])o3)C2=O)cc1 qualitativelabel=active

State the result this test recorded for COC(=O)[C@]12CC[C@@H](C)[C@H](C)[C@@H]1C1=CC[C@@H]3[C@@]4(C)C(C=O)=C[C@@](C)(CO)[C@@H]4[C@H](O)C[C@@]3(C)[C@]1(C)CC2 .
active

---

Tested on: EKVX NSCLC
Assay: NCI-60 one-dose screen, 48 h
Details: 10 µM unless noted
Compounds without any hit were thinned out: in the full panel of roughly 83,000, 20% have a hit. Activity calls are given as the source filed them. Rule for the calls: active = growth percent below 10; inactive = the rest.
Please answer using one outcome listed in active, inactive

Field: example entries. Status: answers known.
compound=COc1ccc2c(c1)CCCN2c1c2ccccc2nc2ccccc12 system="EKVX NSCLC" qualitativelabel=inactive
compound=Cc1cc(/C=C\c2ccc3ccccc3[n+]2C)c(O)c2ncccc12 system="EKVX NSCLC" qualitativelabel=inactive

State the result this test recorded for CC(=O)OC[C@H]1OC(Sc2sc(C(=O)c3ccc(Br)cc3)c(N)c2-c2nc3ccccc3s2)[C@H](OC(C)=O)[C@@H](OC(C)=O)[C@@H]1OC(C)=O (some centres undefined) .
inactive

State the result this test recorded for O=[N+]([O-])c1ccc(OCCO)cc1 .
inactive

State the result this test recorded for N#Cc1nc(C#N)c(Sc2ccccc2)c(Sc2ccccc2)c1Sc1ccccc1 .
active

State the result this test recorded for Clc1cc(Cl)cc(Nc2ccc3cc(OCCCN4CCOCC4)ccc3n2)c1 .
inactive

State the result this test recorded for COC1=C(OC)C(=O)C(OC)=C(OC)C1=O .
inactive

State the result this test recorded for Cc1nn(-c2ccccc2)c2nc3c(c(-c4ccc(Cl)cc4)c12)CNC1(CCSCC1)N3 .
inactive

State the result this test recorded for CN(C)CCC=C1c2ccccc2C(C)(C)c2ccccc21 .
inactive
